Target: Human 5-HT4(d) (Homo sapiens, UniProt Q13639)
Construct: expressed in transfected cells
Sequence (Q13639 1-360 isoform Q13639-3): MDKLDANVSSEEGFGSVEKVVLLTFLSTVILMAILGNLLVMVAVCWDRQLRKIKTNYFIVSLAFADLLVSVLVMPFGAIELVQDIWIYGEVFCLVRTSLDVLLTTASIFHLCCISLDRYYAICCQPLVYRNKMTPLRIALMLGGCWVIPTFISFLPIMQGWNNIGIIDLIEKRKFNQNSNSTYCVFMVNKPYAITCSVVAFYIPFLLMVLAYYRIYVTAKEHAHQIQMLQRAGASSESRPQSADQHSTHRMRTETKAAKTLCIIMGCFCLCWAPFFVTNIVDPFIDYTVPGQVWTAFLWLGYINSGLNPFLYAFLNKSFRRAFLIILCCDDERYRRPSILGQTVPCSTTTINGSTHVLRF
Test: Agonist-induced cAMP elevation in human 5-HT4(d) transfected HEK293 cells
Type: cell-based
Settings: HEK293; cAMP production normalized to the amount produced by 1,000 nM serotonin
RECORDED METRIC: Emax (%)

[[record]]
compound = "O[C@H]1CCCC[C@H]1Oc1cccc2onc(OCC3CCN(CC4(O)CCOCC4)CC3)c12 (relative stereo) [Example 40]"
readout_units = "%"
readout_value = 42

[[record]]
compound = "O=C(O)[C@H]1CC[C@H](CN2CCC(COc3noc4cccc(O[C@H]5CC[C@@H](CO)CC5)c34)CC2)CC1 [Example 47]"
readout_units = "%"
readout_value = 71


[P] O=C(O)C1(CN2CCC(CCOc3noc4cccc(OCC(F)(F)F)c34)CC2)CCOCC1 [Example 7]
[Q] O=C(O)C1(CN2CCC(COc3noc4cccc(O[C@H]5CC[C@H](O)CC5)c34)CC2)CCOCC1 [Example 42]
Request: Could you kindly indicate whether P or Q has the higher Emax value? Identify your pick by its label.
Response: Q

Measured values drawn from patent US8816090B2 for this set.
